Data credit: the METLIN SMRT retention time set (Domingo-Almenara et al. 2019)

experimental_protocol: gradient 5% acetonitrile 3 min, to 50% in 2 min, to 85% in 15 min, held 3 min, 100 µL/min
condition_set: column: Zorbax Extend-C18 2.1 x 50 mm; eluents: water / acetonitrile, 0.1% formic acid
endpoint_name: RP-LC retention time (s)
Give bare numbers, in s.

Take a look at these entries with their results.
compound: CC1(C)O[C@@H]2C[C@H]3[C@@H]4C[C@H](F)C5=CC(=O)C=C[C@]5(C)[C@@]4(F)[C@@H](O)C[C@]3(C)[C@]2(C(=O)CO)O1
units_of_measure: s
RP-LC retention time: 921

compound: Cc1csc(C(=O)NCC(O)c2ccc(C(F)(F)F)cc2)c1 (centres undefined)
units_of_measure: s
RP-LC retention time: 795

compound: Cc1cnc(C(=O)N2CCCCCCNC(=O)[C@@H]3CCCC[C@@H]32)cn1
units_of_measure: s
RP-LC retention time: 694

compound: CCC(C)NC(=O)c1c(O)c2cccnc2n(-c2ccc(OC)cc2)c1=O (centres undefined)
units_of_measure: s
RP-LC retention time: 1140

compound: Cc1nc(-c2ccc3c(c2)n(CC(=O)NC2CCCc4ccccc42)c(=O)n3C(C)C)no1 (centres undefined)
units_of_measure: s
RP-LC retention time: 912

# batch: return RP-LC retention time for each of the 3 compounds below
1. COc1ncccc1CNC(=O)c1cnn2cccnc12
2. CCOC(=O)N1CCN(C(=O)c2nn(-c3ccccc3C)c(=O)cc2OC)CC1
3. CNC(=O)[C@@H]1CN(C(=O)c2ccoc2C)C[C@H]1c1nc(C)no1

1. 638
2. 663
3. 612

Dear colleague, could you please provide RP-LC retention time for the compounds listed below?
1. CCCN1C(=O)Cc2ccccc2C1C(=O)NCc1ccc(Br)cc1 (centres undefined)
2. COC(=O)C(C)n1cc(-c2nc(-c3ccc(Cl)cc3)no2)ccc1=O (centres undefined)
3. CCOCCCNC(=O)c1nnc(-c2ccc(S(=O)(=O)N3CCCCC3)cc2)o1
4. CCOCCCNC(=S)Nc1ccc2nc(N3CCN(CC)CC3)cc(C)c2c1

857
950
762
578

Value sought for every listed compound: RP-LC retention time.
1. COc1ccc(-c2noc(C3CCCN3C(=O)c3cc4ccccc4[nH]3)n2)cc1OC (centres undefined)
2. CCCCOc1ccc(C(=O)NC2(c3nc(CC)no3)CCCCC2)cc1
3. O=C(Cc1ccccc1F)NCCc1nc(-c2ccc3c(c2)OCO3)n[nH]1
4. CC(C)Cc1cc(-c2nnc3sc(-c4ccccc4F)nn23)n[nH]1
5. O=C(Cc1csc(Nc2cccc(Cl)c2)n1)N1CCN(C(=O)c2ccco2)CC1

[971, 1160, 687, 889, 718]

Hi! Can you tell me RP-LC retention time for each of these compounds?
1. CSc1ccc(-c2nc3ccc(Br)cn3c2Nc2ccc(C)cc2)cc1
2. CCC(NC(=O)C1CCN(c2cncnc2N2CCOCC2)CC1)c1ccc(OC)cc1 (centres undefined)

[986, 643]

---

Provide the recorded RP-LC retention time for the entries that follow.
experimental_protocol: gradient 5% acetonitrile 3 min, to 50% in 2 min, to 85% in 15 min, held 3 min, 100 µL/min
condition_set: column: Zorbax Extend-C18 2.1 x 50 mm; eluents: water / acetonitrile, 0.1% formic acid
One number for each entry, in s.

compound: COc1ccc(-c2noc(Cn3nc(-c4ccccc4)ccc3=O)n2)cc1OC
endpoint_name: RP-LC retention time
result_number: 900

Quick one: give me RP-LC retention time for each item below, same order please.
1. O=C(CCc1conc1-c1ccc(F)cc1)NC1CCN(Cc2ccccc2)CC1
2. COc1ccccc1-c1nc2cnccn2c1NCCC(=O)Nc1cc(F)ccc1F
3. O=C(Cc1nc(-c2ccccn2)n[nH]1)Nc1ccc(Cl)cc1
4. Cc1cc(NC(=O)C(=O)NCC2(c3ccc(F)cc3)CCOCC2)no1
5. O=C(NCCC1CCN(C(=O)Nc2ccc(F)cc2F)CC1)c1ccco1
6. CCCCC(=O)N1CCN(c2cc(C)nc(Nc3ccc(C)cc3)n2)CC1
7. COc1ccc(OC)c(CNC(=O)C2CCCN(c3ccc(=O)n(-c4ccc(F)cc4)n3)C2)c1 (centres undefined)
8. COc1ccc(F)cc1S(=O)(=O)NCC1(c2cccs2)CC1

1: 657; 2: 723; 3: 666; 4: 736; 5: 700; 6: 693; 7: 812; 8: 933
